Some binders, each annotated with its measured pKd.
Molecular target: SARS-CoV-2 spike receptor-binding domain (RBD) (SARS-CoV-2, UniProt P0DTC2 319-541)
pKd: −log10 of the molar value.

binder: AB-009666 (antibody, V domains shown) VH: EVQLVESGGGLVQPGGSLRLSCAASGFTFSSYDMHWVRQATGKGLEWVSTIGTAGDTYYPGSVKGRFTISRENAKNSLYLQMNSLRAEDTAVYYCARVNYDSSGYPTYWYFDLWGRGTLVTVSS VL: DIQMTQSPSSLSASVGDRVTITCRASQSISRYLNWYQQKPGKAPKLLIYAASSLQSGVPSRFSGSGSGTDFTLTISSLQPEDFATYNCQQSYSSPPWTFGQGTKVEIK
pKd: 8.52
//
binder: AB-009269 (antibody, V domains shown) VH: QVQLVQSGAEVKKPGASVKVSCKASGYTFTSYGISWVRQAPGQGLEWMGWISAYNGNTNYAQKLQGRVTMTTDTSTSTAYMELRSLRSDDTAVYYCAREGDCSGGSCYSGYYYYYGMDVWGQGTTVTVSS VL: EIVLTQSPATLSLSPGERATLSCRASQSVSSYLAWYQQKPGQAPRLLIYDASNRATGIPARFSGSGSGTDFTLTISSLEPEDFAVYYCQQRSNWGTFGPGTKVDIK
pKd: 7.92
//
binder: AB-009251 (antibody, V domains shown) V domain 1: QVQLVQSGAEVKKPGASVKVSCKTSGYTFTTFYIHWVRQVPGQGLEWMGIINPDGGSTNYAQEFQARVTMTTDTSTSTAYMELSSLRFEDTAVFYCATSLGAPPGLSPRTGPQRRGPPGFDFWGQGTLITVSA V domain 2: QSVLTQPPSVSGAPGQRVTISCTGSSSNIGAGYDVHWYQQLPGTAPKLLIFDNNNRPSGVPYRFSGSRSGTSASLAITGLQPEDEADYYCQSYDSSLSGRVFGGGTRVTVL
pKd: 8.03
